- assayed.target: human recombinant HDAC6 (Homo sapiens, UniProt Q9UBN7)
- Sequence (Q9UBN7 whole entry): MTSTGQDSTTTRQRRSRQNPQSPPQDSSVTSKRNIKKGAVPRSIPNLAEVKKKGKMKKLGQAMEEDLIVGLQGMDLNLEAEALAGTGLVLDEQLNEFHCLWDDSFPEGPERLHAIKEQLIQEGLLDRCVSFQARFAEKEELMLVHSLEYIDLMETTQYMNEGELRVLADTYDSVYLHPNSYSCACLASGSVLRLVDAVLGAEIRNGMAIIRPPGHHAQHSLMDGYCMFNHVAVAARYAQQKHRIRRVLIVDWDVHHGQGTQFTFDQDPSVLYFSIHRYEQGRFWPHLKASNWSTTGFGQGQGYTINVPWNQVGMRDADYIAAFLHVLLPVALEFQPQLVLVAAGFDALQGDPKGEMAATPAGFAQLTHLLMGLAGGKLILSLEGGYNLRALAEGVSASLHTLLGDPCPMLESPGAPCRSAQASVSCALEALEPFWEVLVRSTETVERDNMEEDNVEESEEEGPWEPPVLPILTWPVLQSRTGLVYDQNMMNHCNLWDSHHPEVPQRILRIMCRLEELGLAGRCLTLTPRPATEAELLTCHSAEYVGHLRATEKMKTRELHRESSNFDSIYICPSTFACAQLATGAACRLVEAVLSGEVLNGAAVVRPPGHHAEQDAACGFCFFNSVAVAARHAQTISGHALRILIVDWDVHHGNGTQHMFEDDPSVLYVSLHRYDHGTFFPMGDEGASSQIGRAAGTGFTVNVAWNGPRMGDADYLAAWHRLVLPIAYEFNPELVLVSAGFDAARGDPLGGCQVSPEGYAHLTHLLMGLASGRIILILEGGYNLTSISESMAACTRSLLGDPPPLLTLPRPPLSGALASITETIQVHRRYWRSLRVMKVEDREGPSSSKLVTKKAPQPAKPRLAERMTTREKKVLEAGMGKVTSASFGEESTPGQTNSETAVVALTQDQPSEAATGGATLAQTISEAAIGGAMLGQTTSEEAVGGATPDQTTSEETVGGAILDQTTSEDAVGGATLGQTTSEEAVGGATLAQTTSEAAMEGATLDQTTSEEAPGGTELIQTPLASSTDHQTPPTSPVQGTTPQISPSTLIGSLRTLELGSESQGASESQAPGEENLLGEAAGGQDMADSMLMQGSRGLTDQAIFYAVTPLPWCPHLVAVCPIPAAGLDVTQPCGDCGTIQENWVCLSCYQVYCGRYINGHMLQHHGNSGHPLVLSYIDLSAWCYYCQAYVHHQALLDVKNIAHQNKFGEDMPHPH
- experiment: HDAC6 enzyme activity inhibition (fluorimetric, in vitro)
- study.conditions: samples at 0.1, 1, 10, 100 and 1000 nM
- Experimental: A HDAC enzyme inhibitory capacity of a test material was measured by using HDAC1 Fluorimetric Drug Discovery Assay Kit (Enzolifesciences: BML-AK511) and HDAC6 human recombinant (Calbiochem: 382180). […] For the test on the HDAC1 enzyme activity, human recombinant HDAC1 (BML-SE456) was used as a zymogen and Fluor de Lys®-SIRT1 (BNL-KI177) was used as a substrate. […] After that, a fluorescence value (Ex 360, Em 460) was measured with a multi-plate reader (FlexStation 3, Molecular Device). […]
measurement.type: IC50 (µM)

Some compounds with known IC50 results, for comparison:
> print(dat)
                                   compound  unit.of.measurement  result
1  CC1CN(C(=O)N(Cc2ccc(-c3nnc(C(F)F)o3)cn2)c2ccccc2)CCS1(=N)=O (centres unmarked)                   µM  0.0746
2  N=S1(=O)CCN(S(=O)(=O)N(Cc2ncc(-c3nnc(C(F)F)o3)s2)c2ccccc2)CC1                   µM  0.0502
3  CN=S1(=O)CCN(C(=O)N(Cc2ccc(-c3nnc(C(F)F)o3)cc2F)c2ccccc2)CC1                   µM  0.0808

[I] Cc1cccc(N(Cc2ccc(-c3nnc(C(F)F)o3)cc2F)C(=O)N2CCS(=N)(=O)CC2)c1
[II] N=S1(=O)CCN(C(=O)N(Cc2ccc(-c3nnc(C(F)F)o3)cc2F)c2ccccc2)CC1
[III] N=S1(=O)CCN(C(=O)N(Cc2cnc(-c3nnc(C(F)F)o3)cn2)c2cccc(F)c2)CC1
Asked: Form: Sort by [IC50] Order [ ascending ] Reply with the labels, ordered as the question asks.
Given back: II, I, III

###

Attribute: IC50
- assayed.target: human recombinant HDAC1 (Homo sapiens, UniProt Q13547)
- Sequence (Q13547 whole entry): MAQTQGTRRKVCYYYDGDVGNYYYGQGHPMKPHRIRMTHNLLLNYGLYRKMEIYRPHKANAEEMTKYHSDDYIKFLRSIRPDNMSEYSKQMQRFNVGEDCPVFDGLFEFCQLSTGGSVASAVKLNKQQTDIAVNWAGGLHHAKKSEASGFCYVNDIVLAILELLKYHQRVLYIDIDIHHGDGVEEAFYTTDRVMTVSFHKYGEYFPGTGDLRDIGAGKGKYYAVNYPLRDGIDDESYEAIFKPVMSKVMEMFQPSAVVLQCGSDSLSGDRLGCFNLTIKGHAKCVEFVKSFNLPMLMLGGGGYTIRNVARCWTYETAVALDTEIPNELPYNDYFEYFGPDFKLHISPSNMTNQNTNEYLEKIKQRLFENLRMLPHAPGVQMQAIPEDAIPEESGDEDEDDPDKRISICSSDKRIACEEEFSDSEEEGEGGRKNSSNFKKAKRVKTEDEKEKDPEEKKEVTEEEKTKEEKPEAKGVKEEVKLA
- experiment: HDAC1 enzyme activity inhibition (HDAC1 Fluorimetric Drug Discovery Assay Kit, in vitro)
- study.conditions: samples at 100, 1000 and 10000 nM

Some compounds with known IC50 results, for comparison:
> print(dat)
                                   compound  measurement.type   result
1  N=S1(=O)CCN(c2c(N(Cc3ncc(-c4nnc(C(F)F)o4)cc3F)c3ccccc3)c(=O)c2=O)CC1              IC50  > 10 µM
2  N=S1(=O)CCC(N2C[C@@H]3C[C@H]2CN3C(=O)N(Cc2ccc(-c3nnc(C(F)F)o3)cn2)c2ccccc2F)CC1 (stereo partly shown)              IC50  > 10 µM
3  N=S1(=O)CCN(S(=O)(=O)N(Cc2ccc(-c3nnc(C(F)F)o3)cn2)c2cccc(F)c2)CC1              IC50  > 10 µM

Asked: What measured IC50 goes with CS(=N)(=O)c1ccc(N(Cc2ccc(-c3nnc(C(F)F)o3)cn2)C(=O)N2CCS(=N)(=O)CC2)cc1 (stereo not shown) ?
Given back: > 10 µM

Asked: Okay, and "CC(=O)N1CCC(c2ccc(N(Cc3ccc(-c4nnc(C(F)F)o4)cc3F)C(=O)N3CCS(=N)(=O)CC3)cc2)CC1" ?
Given back: > 10 µM

Asked: Okay, and "N=S1(=O)CCN(C(=O)N(Cc2ccc(-c3nnc(C(F)F)o3)cc2F)c2ccc3c(c2)CCC3)CC1" ?
Given back: > 10 µM

Asked: Okay, and CS(=N)(=O)C1CN(C(=O)N(Cc2ccc(-c3nnc(C(F)F)o3)cn2)c2cccc(F)c2)C1 (stereo not shown) ?
Given back: > 10 µM

Numbers sourced from patent US20260125370A1.
